Procedure Summary: Caco-2 permeability assay (Transwell)
Format: in vitro ADME, human
Condition Info: human; Caco-2 permeability model, 1,000 μM, 240 min time point; read-out: P app, experimental
Measured Parameter: Papp A→B at 240 min, 1000 μM (×10⁻⁶ cm/s)

1 = O=C1C[C@@H](c2ccc(O)cc2)Oc2cc(O)cc(O)c21 [naringenin]
2 = O=C1C[C@@H](c2ccc(OS(=O)(=O)O)cc2)Oc2cc(O)cc(O)c21 [naringenin 4’-O-sulphate]
Q: Endpoint returns whichever of 1 and 2 has the numerically higher Papp A→B at 240 min, 1000 μM. Response format: the label of the selected entry.
Result: 1

Sourced from paper PMC11303286
